assay procedure: inhibitors of HIV-1 Env-driven cell-cell fusion, primary screen, HeLa-JRFL effector, CEM21 target cells, luciferase (AID 651610);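 also: 0% = plate neutral controls and 100% = maraviroc near 300 nM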
condition description: at 16.7 µM unless noted
In all, about 360,000 compounds went through this assay and about 3,900 (1.1%) were called active.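 The calls were made as follows: active = mean replicate inhibition score of at least 50 and every replicate individually at or above 50; inconclusive = only one of the two criteria met; inactive = mean below 50 and not all replicates reaching 50.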 This is one part of a sample in which actives are shown more often than they occur.
The categories you may choose from are 1 (yes) for active, 0 (no) for inactive

**Q:** Returns: the outcome recorded for COc1ccc(-c2cnc3c(c2)C(=O)N([C@H](C)CO)C[C@H](C)[C@H](CN(C)S(=O)(=O)c2ccccc2)O3)cc1 in this assay.
**A:** 0 (no)

**Q:** Next compound up: CC1CCN(C(=O)COC(=O)c2cc(S(=O)(=O)N3CCOCC3)ccc2Cl)CC1
**A:** 0 (no)

**Q:** # iterate: CC(C)NC(=O)N(C)C[C@@H]1Oc2ncc(C#Cc3ccncc3)cc2C(=O)N([C@@H](C)CO)C[C@@H]1C
**A:** 0 (no)

**Q:** Could you do the same for C[C@@H]1CN([C@@H](C)CO)C(=O)Cc2cc(NS(=O)(=O)c3cccs3)ccc2O[C@@H]1CN(C)C(=O)Nc1ccc(C(F)(F)F)cc1 , please?
**A:** 0 (no)

**Q:** Param item: C[C@@H]1CN([C@@H](C)CO)S(=O)(=O)c2ccc(C#C[C@@H](C)O)cc2O[C@@H]1CN(C)CC1CC1
**A:** 0 (no)

**Q:** Another compound to check: C[C@H]1CCCCO[C@@H](CN(C)Cc2ccc(C(=O)O)cc2)[C@@H](C)CN([C@@H](C)CO)C(=O)c2cc(NS(C)(=O)=O)ccc2O1
**A:** 0 (no)

**Q:** # repeat for CC(=O)N[C@H]1CC[C@H](CCNC(=O)C2CC2)O[C@H]1CO
**A:** 0 (no)

**Q:** Same question, CO[C@@H]1CN(C)C(=O)c2cc(NC(=O)c3ccc(F)cc3)ccc2OC[C@H](C)N(C(=O)CN(C)C)C[C@H]1C this time
**A:** 0 (no)

**Q:** Again, but for COC(=O)C1CCN(C(=O)COC(=O)c2cc(S(=O)(=O)N3CCOCC3)ccc2C)CC1
**A:** 1 (yes)

**Q:** Please do the same for Cc1ccc(Cc2c(-c3ccc(C)cc3)nc3c4ccccc4ccn23)cc1 as well.
**A:** 0 (no)

**Q:** Same read-out for C[C@H](O)C#Cc1cnc2c(c1)C(=O)N([C@@H](C)CO)C[C@H](C)[C@@H](CN(C)C(=O)c1ccncc1)O2 ?
**A:** 0 (no)

**Q:** Also, CN1C(=O)c2cc(NC(=O)c3ccc4c(c3)OCO4)ccc2OC[C@@H]2O[C@H](CC(=O)O)CC[C@H]21 please.
**A:** 0 (no)

**Q:** Queued: Cc1ccc(Cc2c(-c3ccc(Cl)cc3)nc3c4ccccc4ccn23)cc1
**A:** 0 (no)

**Q:** Entry to check: C[C@H](CO)N1C[C@H](C)[C@H](CN(C)S(=O)(=O)c2cn(C)cn2)Oc2ccc(NS(=O)(=O)c3ccccc3)cc2C1=O
**A:** 0 (no)

**Q:** Could you do the same for c1ccc(Cc2c(-c3ccco3)nc3c4ccccc4ccn23)cc1 , please?
**A:** 1 (yes)

**Q:** What do we get for C[C@H](CO)N1C[C@H](C)[C@@H](CN(C)C(=O)Nc2ccc(F)cc2)OCCCC[C@H](C)Oc2ccc(NC(=O)c3ccncc3)cc2C1=O ?
**A:** 0 (no)

**Q:** For O=C(C[C@H]1C[C@H]2c3cc(NC(=O)CC4CC4)ccc3O[C@H]2[C@H](CO)O1)NCc1ccccc1 then?
**A:** 0 (no)
